Recorded TGI, one value per entry.
Test system: HOP-92 NSCLC
Test: NCI tumour cell line growth inhibition, 48 h

Cc1ccc2c(=O)cc(-c3ccc(Cl)cc3)[nH]c2n1 ... > 100 µM
CCN(CC)c1ccc(/C=C/C2=NN(c3cccc(S(=O)(=O)O)c3)C3(C2)SCC(=O)N3c2nc3ccccc3s2)cc1 (stereo not given) ... > 100 µM
CN(N=O)C(=O)NNC(=O)N(C)N=O ... > 100 µM
CCOC(=O)N1CCC2(CC1)CC(=O)N(Nc1ccccc1)C2=O ... > 100 µM
Cc1[nH]n(-c2ncc(C#N)c(=O)[nH]2)c(=O)c1CCO ... > 100 µM
Cc1ncc(CSc2ccccc2N)c(CO)c1O ... > 100 µM

**Q:** Name the value of TGI reported for O=C(O)C1Cc2c([nH]c3ccccc23)C(CCCCO)N1 (stereo not given) when tested on HOP-92 NSCLC.
**A:** > 100 µM

**Q:** Find the measured TGI of CC1(C)COC(c2ccc(C(=O)c3ccc(Cl)cc3)cc2)=N1 with HOP-92 NSCLC as test system.
**A:** > 100 µM

**Q:** Output reported TGI of the compound COc1ccc2cnc(N)c(C#Cc3cc(C(=O)Nc4ccc(CN5CCN(C)CC5)c(C(F)(F)F)c4)cnc3C)c2c1 on HOP-92 NSCLC.
**A:** 0.796 µM

**Q:** Consider the compound O=C(NC(N1CCN(c2cc3c(cc2F)c(=O)c(C(=O)O)cn3C2CC2)CC1)(C(F)(F)F)C(F)(F)F)c1ccccc1 tested on HOP-92 NSCLC; state its TGI.
**A:** 93.3 µM

###

Listed molecules paired with reported TGI
Test system: HCT-15 colon
Assay: NCI tumour cell line growth inhibition, 48 h
Enter your answer as a number in µM; do not include the unit.

COc1cc([C@@H]2c3cc4c(cc3[C@@H](NC(=O)c3cccc(C#N)c3)C3COC(=O)[C@@H]32)OCO4)cc(OC)c1O (stereo not given in full) ... 24.5
O=C(c1ccccc1)N(C(=S)NCCc1ccc(Cl)cc1)c1ccc(Cl)cc1 ... 14.4
COc1ccc2ccnc(Cc3ccc(OCc4ccccc4)c(OC)c3)c2c1 ... 44.9
C[n+]1c2ccccc2c2/c(=C\C#N)c3ccccc3n21 ... 97.2
c1ccc(CNc2ccc3[nH]c4cnccc4c3c2)cc1 ... 39.1

# input for lookup
**Q:** Determine from records and report TGI for c1ccc(-c2n(Cc3ccc4ccccc4n3)cc[n+]2Cc2ccc3ccccc3n2)cc1
**A:** 85.6

###

Test system: HCC-2998 colon
Assay: NCI tumour cell line growth inhibition, 48 h
OBSERVATION TYPE: TGI

C[C@H](Nc1ccc2c(c1)OCCn1cc(N3C(=O)OC[C@H]3C(F)F)nc1-2)C(N)=O ... > 100 µM
Fc1cc(-c2csc3n[nH]c(=S)n23)c(Cl)cc1Cl ... 70.1 µM
CCOC(=O)c1sc2c(sc(=O)n2-c2ccccc2)c1O ... > 100 µM

**Q:** Param request: TGI | system HCC-2998 colon | item C[C@@H]1OC(=O)C[C@H]2CC(=O)N(CCC3CN(C(=O)c4ccccc4)c4ccccc43)C[C@@H]21 (some centres undefined)
**A:** > 100 µM

**Q:** Quote TGI with test system HCC-2998 colon for COc1ccc(NC(C)=O)cc1N1C(=O)/C(=C\c2cccc(Oc3ccccc3)c2)S(=O)(=O)C1c1ccccc1 (centres undefined)
**A:** > 100 µM

**Q:** Give reported TGI for COC(=O)c1ccc2cc(O)c(O)cc2c1 (HCC-2998 colon)
**A:** > 100 µM

**Q:** Find TGI for CC1=C(C)C2(C#N)C(=O)N3C(=NC(c4ccccc4)NC3c3ccccc3)C2(C#N)C(c2ccccc2)N1 (centres undefined) on HCC-2998 colon and write it down.
**A:** > 100 µM

**Q:** Give HCC-2998 colon TGI for the following compound: O=C(NCCCCN(CCCNC(=O)C(F)(F)F)Cc1ccccc1)C(F)(F)F
**A:** > 100 µM

**Q:** Answer with TGI of C(=C\c1cc(CCc2nc3ccccc3[nH]2)[nH]n1)/c1ccccc1 measured for HCC-2998 colon.
**A:** > 100 µM

**Q:** Under HCC-2998 colon, report TGI for CC(=O)OCC1OC(n2c(C)c(C(C)=O)c(-c3ccc(Cl)cc3)c(C#N)c2=S)C(OC(C)=O)C(OC(C)=O)C1OC(C)=O (centres undefined)
**A:** > 100 µM

**Q:** Enter recorded TGI with HCC-2998 colon for COC(=O)C1CC2c3c(c4ccccc4n3C)CC(C1=O)N2C (centres undefined) here.
**A:** > 100 µM

**Q:** Provide measured TGI on HCC-2998 colon for CN(C)C(=O)Oc1ccc[n+](C)c1 please.
**A:** > 100 µM

**Q:** Quote HCC-2998 colon TGI for entry CC1=C(C(=O)OCCc2ccc([N+](=O)[O-])cc2)C(c2cccc([N+](=O)[O-])c2)C(C(=O)OC(C)C)=C(C)N1 (centres undefined) .
**A:** > 100 µM

Measured values drawn from PubChem BioAssay (NCI) for this set.
